# METHOD: Plasma protein binding via rapid equilibrium dialysis (RED), 10% plasma
# Type: in vitro ADME, human
# CONDITION: human, 10% pooled plasma (diluted 1:10), pH 7.4, RED, 10% plasma corrected for dilution, presaturation of device and 24 h dialysis
EXPERIMENTAL_READOUT: fraction unbound at 24 h

Example cases with answers are listed next.
CCCCN(CCCC)CCC(O)c1cc2c(Cl)cc(Cl)cc2c2cc(C(F)(F)F)ccc12 (stereo not drawn) : < 0.0001
O=C1C(O)=C([C@H]2CC[C@H](c3ccc(Cl)cc3)CC2)C(=O)c2ccccc21 : < 0.0001

Note: attention shifts to another entry.
State, in one line, measured fraction unbound at 24 h of CCCCN(CCCC)CC(O)c1cc(Cl)cc2c1-c1ccc(Cl)cc1/C2=C/c1ccc(Cl)cc1 (stereo not drawn) < 0.0001
